system: HOP-92 NSCLC; experiment: NCI-60 one-dose screen, 48 h; conditions: 10 µM unless noted
This is part of a sample that, as a whole, favours compounds with a hit. Of some 83,000 tested, about 20% had one in any assay. The source made the active and inactive calls. Rule for the calls: active = growth percent below 10; inactive = the rest.
Hello, when you answer, please use one of the following outcomes: active, inactive

INSERT INTO measurements (molecule, assigned_class) VALUES
  ('COc1cc(-c2nc(NC(C)=O)sc2-c2ccnc(NCCNS(=O)(=O)c3ccccc3)n2)ccc1Cl', 'inactive'),
  ('O=C1NC(=O)c2c1c1c3ccccc3[nH]c1c1oc3ccc(F)cc3c21', 'inactive'),
  ('CC(C)(CO)N(CCO)CCO', 'inactive'),
  ('CC(C)c1ccc(NC(=O)Nc2ccc(NC(=O)c3ccccc3N)cc2)cc1', 'inactive'),
  ('C#CC#CC#CC#CC#CC#CC#CC#CCC1OCC(COC(=O)O[C@@H](C(=O)O[C@H]2C[C@@]3(O)[C@@H](OC(=O)c4ccccc4)[C@@H]4[C@]5(OC(C)=O)CO[C@@H]5C[C@H](O)[C@@]4(C)C(=O)[C@H](OC(C)=O)C(=C2C)C3(C)C)[C@@H](NC(=O)c2ccccc2)c2ccccc2)O1 (stereo not given in full)', 'inactive'),
  ('Cn1cc(-c2nc(-c3c[nH]c4ccncc34)cs2)c2cc(Br)ccc21', 'active'),
  ('COc1cc2c(c(OC)c1OC)C(=O)N[C@@H]1[C@@H](O)[C@@H](O)[C@H](O)C[C@@H]21', 'inactive'),
  ('CN(C)c1ccc(-c2cc(-c3ccc(Nc4nc(Nc5ccc(Cl)cc5)nc(Nc5ccc(Cl)cc5)n4)cc3)nc(N)c2C#N)cc1', 'inactive'),
  ('O=C(CCl)Nc1ccc2c(Nc3cc(O)ccc3Cl)ncnc2c1', 'active'),
  ('Cn1cc(-c2csc(-c3cn(C)c4ccc(Br)cc34)n2)c2cnccc21', 'active');

What was the test verdict on Cc1cc2nc(-c3c(-c4ccc(F)cc4)nc4sccn34)[nH]c2cc1C ?
inactive

Let us now turn to CSCCC(NC(=O)c1ccccc1)C(=O)N/N=C1\S/C(=C/c2ccc(Cl)cc2)C(=O)N1C (stereo not given)
inactive

Let us now turn to CC1COCC(C)N1C1=C(Cl)C(=O)c2ccccc2C1=O (stereo not given)
inactive

Let us now turn to CCCNc1nc2ccccc2c2c(=O)c3cccc(Cl)c3sc12
inactive

Let us now turn to COc1ccc(C2=NN(C(C)=O)C(c3ccc(Oc4ccnc5cc(Cl)ccc45)c(OC)c3)C2)cc1 (stereo not given)
active

Let us now turn to Cn1cc(-c2ccc3cc(-c4ccc(CC(=O)Nc5cc(C(C)(C)C)on5)cc4)cnc3c2)cn1
inactive

FYI, the data here is from PubChem BioAssay (NCI).
